biological target: T1, ECD region of Her2 (human, UniProt P04626 23-652); assay: screening after three rounds of phage selection, soluble periplasmic scFv
T1 construct: extracellular domain; Generic target of the scFv screen; also called extracellular domain (ECD) of Her2 (ErbB2)
value_kind: binding result

binder	value_measured
S1R3A1_BMV_1F3 (scFv, V domains shown, scFv, soluble from bacterial periplasm in the screen; also called Her2_S1R3A1_BMV_1F3) VH: EVQLVESGEGLVKPGGSLRLSCTASGFTFRSYSLNWVRQAPGQGLEWVSSISSTSTYIYYADSVKGRFTISRDDAKNTLYLQMNSLRAEDTAAYYCVRLGSGGGYFPDYWGRGTLVTVSS VL: SSELTQDPAVSVALGQTVRITCQGDSLRSYYASWYQQKPGQAPVLVIYGKNNRPSGIPDRFSGSSSGNTASLTITGAQAEDEADYYCNSRDSSGNHVVFGGGTKLTVL	binds
S1R3B1_BMV_1G11 (scFv, V domains shown, scFv, soluble from bacterial periplasm in the screen; also called Her2_S1R3B1_BMV_1G11) VH: QVQLVQSGGGLVQPGGSLRLSCAASGFTFSTYAMSWARQAPGKGLEWVSSISGDGGRILDADSAKGRFTISRDNSKNTLYLQMNGLRVEDTALYYCARADGNYWGRGTMVTVSS VL: QSVLTQPASVSGSPGQSITISCTGTSSDVGGYNYVSWYQQHPGKAPKLMIYEGSKRPSGVSNRFSGSKSGNTASLTISGLQAEDEADYYCSSYTTRSTRVFGGGTKLTVL	binds
S1R3B1_BMV_1H5 (scFv, V domains shown, scFv, soluble from bacterial periplasm in the screen; also called Her2_S1R3B1_BMV_1H5) VH: QVQLQESGGGVVQPGGSLRLSCAASGFTFSGYGMHWVRQAPGKGLEWVASVRNDGSNTYYTDSVKDRFTISRDNTKNTLYLQMNSLRAEDTAVYYCAKSRRVMYGTSYYFDYWGRGTLVTVSS VL: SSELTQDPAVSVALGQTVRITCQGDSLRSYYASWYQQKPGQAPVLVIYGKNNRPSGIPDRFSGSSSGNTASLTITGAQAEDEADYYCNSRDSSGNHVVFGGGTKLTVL	binds
